Data origin: the supplement of paper PMC10126150

- System: ATP;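 note: ATP exposure 15 min at 22 °C before imaging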
- Procedure Details: switch fluorescence ratio, 500 uM ATP over buffer (Cy3 cluster intensity, sum of 5 cycles each) (fold (ratio)); higher = stronger signal-on switching upon ATP binding; sequences stand for … in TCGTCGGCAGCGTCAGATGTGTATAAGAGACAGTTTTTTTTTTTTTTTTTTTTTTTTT…TC
- Measurement Conditions: aptamer strand: ATP DNA aptamer (quencher-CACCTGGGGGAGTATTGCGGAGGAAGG + anchor), 100 nM annealed; ATP concentration: 500 uM
Quantity Kind: switch fluorescence ratio

Primary Sequence: GTGGGGATTT
Recorded Measurement: 1.01

Primary Sequence: AGTGGTTCGC
Recorded Measurement: 1.01

Primary Sequence: TTTATCCGAC
Recorded Measurement: 1.15

Primary Sequence: ATATATTGAG
Recorded Measurement: 0.995

Primary Sequence: TGAATTTAGT
Recorded Measurement: 0.973

Primary Sequence: GCTATATTTT
Recorded Measurement: 0.982

Primary Sequence: TTGATGTCAA
Recorded Measurement: 0.999

Primary Sequence: GCACACGGGG
Recorded Measurement: 1.01

Primary Sequence: GAGAAATGTG
Recorded Measurement: 1.03

Primary Sequence: ATACCATCGG
Recorded Measurement: 0.981
